Assay: JHH-DIPG-1 glioma cell viability, MIPE5.0 library, CellTiter-Glo luminescence, qHTS (AID 1347067);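 note: cells exposed to compound for 48 hours before readout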
Conditions: JHH-DIPG-1 glioma viability, CellTiter-Glo ATP luminescence
Inconclusive results are not listed. The source made the active and inactive calls. No cut-off is given here; in the data, nearly all actives have AC50 up to about 26 µM.
Select the correct class. Options are active, inactive and nothing else.

{"smiles.data": "CCc1c(O)cc(O)c(C(=O)c2ccc(OCCN3CCOCC3)c(OC)c2)c1CC(=O)N(CCOC)CCOC", "discrete.label": "active"}
{"smiles.data": "Cc1cc(Nc2nc(N[C@@H](C)c3ccc(F)cc3)c(C#N)cc2F)n[nH]1", "discrete.label": "active"}
{"smiles.data": "COc1cc(OC)cc(N2CCN(C(=O)Nc3nc4cc(F)ccc4nc3OC)CC2)c1", "discrete.label": "active"}
{"smiles.data": "O=C1Nc2nc(-c3c(O)cccc3OCC3CC3)cc([C@@H]3CCCNC3)c2CO1", "discrete.label": "active"}
{"smiles.data": "CC(C)c1cc(CNc2nc(Nc3cc(C4CC4)[nH]n3)cc(N3CCN(C)CC3)n2)on1", "discrete.label": "active"}
{"smiles.data": "c1ccc(CNc2nc(NCc3ccccc3)c3ccccc3n2)cc1", "discrete.label": "active"}
{"smiles.data": "NS(=O)(=O)OC[C@@H]1C[C@@H](n2ccc3c(N[C@H]4CCc5ccccc54)ncnc32)C[C@@H]1O", "discrete.label": "inactive"}
{"smiles.data": "Cc1ccc(S(=O)(=O)N[C@@H](Cc2ccccc2)C(=O)CCl)cc1", "discrete.label": "active"}
{"smiles.data": "CCOC(=O)[C@@H](N)CCC(=O)N[C@@H](CSCc1ccccc1)C(=O)N[C@@H](C(=O)OCC)c1ccccc1", "discrete.label": "active"}

Request: Test call for this compound, please: O=C(Nc1ccnc(NC(=O)C2CC2)c1)c1c(Cl)cccc1Cl
Result: active

* * *

Assay: growth inhibition of DIPG cells – cell-based, MIPE4.0 library, CellTiter-Glo luminescence, qHTS (AID 1347066);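 note: cells exposed to compound for 48 hours before readout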
Settings: SU-DIPG-VI viability, CellTiter-Glo ATP luminescence
Records with an inconclusive call do not appear. Activity calls are given as the source filed them. Cut-off not given; nearly all actives show AC50 up to about 30 µM.
Result category, one only: active, inactive

Example cases with answers are listed next.
{"compound": "Cc1c(-c2cccc3c(CCCOc4cccc5ccccc45)c(C(=O)O)n(Cc4cccnc4)c23)c(COc2ccc(N3CCN([S+](=O)([O-])N(C)C)CC3)cc2)nn1C", "discrete.label": "active"}
{"compound": "CO/N=C(/C(=O)N[C@@H]1C(=O)N2C(C(=O)O)=C(Cn3ccc(=N)n3CCO)CS[C@H]12)c1csc(N)n1", "discrete.label": "inactive"}
{"compound": "COc1ccc2cc(-c3nc(-c4ccc(S(C)=O)cc4)[nH]c3-c3ccncc3)ccc2c1 (configuration not stated)", "discrete.label": "inactive"}
{"compound": "CN(C)CC[C@H](CSc1ccccc1)Nc1ccc(S(=O)(=O)NC(=O)c2ccc(N3CCN(Cc4ccccc4-c4ccc(Cl)cc4)CC3)cc2)cc1[N+](=O)[O-]", "discrete.label": "active"}
{"compound": "CN(C)c1ccccc1CN1CCCN(Cc2ccccc2N(C)C)C1c1ccncc1", "discrete.label": "inactive"}

Request: Assay result, entry CC[C@H](CC[C@@H](C)[C@H]1CC[C@H]2[C@@H]3CC=C4C[C@@H](O)CC[C@]4(C)[C@H]3CC[C@]12C)C(C)C — outcome?
Result: inactive

Request: // param item: CC(C)c1cc(C(C)C)c(CC(=O)NS(=O)(=O)Oc2c(C(C)C)cccc2C(C)C)c(C(C)C)c1 ; yields the recorded call
Result: active

* * *

Assay: drug combination growth inhibition, ovarian cancer – cell-based, oncology-focused library, rucaparib conditional, profiling panel (AID 1508598)
Details: patient-derived ovarian cancer cells, CellTiter-Glo viability, 144 h; at 0.00122 µM; OCI-C5x cells; with rucaparib 10 µM; stronger effect = lower value; 100% = cells with rucaparib alone
# maps each entry to its viability
Respond with the bare value in %.

Examples with answers:
{"smiles.data": "N#CCNC(=O)c1ccc(-c2ccnc(Nc3ccc(N4CCOCC4)cc3)n2)cc1", "viability (%)": 103}
{"smiles.data": "Cc1cnc(Nc2ccc(OCCN3CCCC3)cc2)nc1Nc1cccc(S(=O)(=O)NC(C)(C)C)c1", "viability (%)": 113}
{"smiles.data": "Cc1nc(Nc2n[nH]c3c2CN(C(=O)N[C@H](CN(C)C)c2ccccc2)C3(C)C)c2sccc2n1", "viability (%)": 112}

Request: Entry under review: CC(C)C[C@H](NC(=O)CNC(=O)c1cc(Cl)ccc1Cl)B(O)O . Reported viability?
Result: 112

Request: Quick check: viability of C=CCn1c(=O)c2cnc(Nc3ccc(N4CCN(C)CC4)cc3)nc2n1-c1cccc(C(C)(C)O)n1 ?
Result: 122

* * *

Test: compounds altering HSF1 focus formation in cells – imaging, Selleck Cancer Library (AID 1347162)
Conditions: human cells, HSF1 nuclear foci imaging, at 10 µM; measured here: HSF1 foci SSMD mean
The following molecules are listed with their measured SSMD values.

Examples with answers:
{"smiles.data": "N#CCNC(=O)c1ccc(-c2ccnc(Nc3ccc(N4CCOCC4)cc3)n2)cc1", "SSMD": -3.51}
{"smiles.data": "CCOc1ccn(-c2ccc(F)cc2)c(=O)c1C(=O)Nc1ccc(Oc2ccnc(N)c2Cl)c(F)c1", "SSMD": 2.9}
{"smiles.data": "COc1cc2nc(N3CCCN(C)CC3)nc(NC3CCN(Cc4ccccc4)CC3)c2cc1OC", "SSMD": 1.64}
{"smiles.data": "CC(C)c1ccc(Cn2ccc3c4c(N)nc(NC5CC5)nc4ccc32)cc1", "SSMD": -7.04}
{"smiles.data": "Cc1cnc(Nc2ccc(OCCN3CCCC3)cc2)nc1Nc1cccc(S(=O)(=O)NC(C)(C)C)c1", "SSMD": 1.73}

Request: Can you share its SSMD? I mean this molecule: CO[C@@H](C(=O)N1Cc2[nH]nc(NC(=O)c3ccc(N4CCN(C)CC4)cc3)c2C1)c1ccccc1
Result: 1.91

Request: Which SSMD reading was recorded for the molecule C[C@]12CC[C@H](O)CC1=CC[C@@H]1[C@@H]2CC[C@]2(C)C(c3cccnc3)=CC[C@@H]12 ?
Result: 1.68

Request: Fill blank: measured SSMD of the molecule CC(C)=CCC/C(C)=C/CC/C(C)=C/CSc1ccccc1C(=O)O is ____.
Result: 2.56

Request: Dear colleague, I am looking for the recorded SSMD of the following molecule: Cc1cc(/C=c2/sc3nc4ccccc4n3c2=O)c(C)n1-c1ccccc1
Result: 3.08

* * *

Experiment: drug combination growth inhibition, ovarian cancer – cell-based, oncology-focused library, rucaparib conditional, profiling panel (AID 1508598)
Details: patient-derived ovarian cancer cells, CellTiter-Glo viability, 144 h; at 1.25 µM; OCI-P5x cells; without rucaparib
Active and inactive are the calls of the source.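 How the source made its calls: active means normalized viability below 100% at a tested concentration; inactive means the rest.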
Permitted responses: True = active, False = inactive

Would you please look over these solved cases?
{"compound": "Cc1ccc2nc(NC(=O)CSc3nc4c(c(=O)n3-c3ccccc3)SCC4)sc2c1", "discrete.label": "True"}
{"compound": "COCCOc1nc(-c2ccc(Cl)c(Cl)c2)n(-c2ccc(NC(=O)CCl)cc2)n1", "discrete.label": "True"}
{"compound": "Cc1cccc(Nc2nc(-c3ccncc3)cs2)c1", "discrete.label": "True"}
{"compound": "CN(NC(=O)CC(=O)NN(C)C(=S)c1ccccc1)C(=S)c1ccccc1", "discrete.label": "True"}
{"compound": "Cc1cnc(-c2ccccc2C(C)C)nc1NCc1ccc(-n2ccnn2)cc1", "discrete.label": "True"}
{"compound": "CC1(O)CC(c2nc(-c3ccc4ccc(-c5ccccc5)nc4c3)c3c(N)nccn23)C1 (centres undefined)", "discrete.label": "True"}

Request: What call does the record list for CNc1nc(-c2ccc3c(N)n[nH]c3c2)cc(N2C[C@@H](C(=O)NC3CCCCC3)CC[C@H]2C)n1 ?
Result: True

Request: Recorded call for COc1ncc(-c2ccc3nccc(-c4ccnnc4)c3c2)cc1NS(=O)(=O)c1ccc(F)cc1F ?
Result: True

Request: What was the test verdict on COC(=O)Nc1ccc(-c2nc(N3CCOCC3)c3cnn(C4CCN(C(=O)OC)CC4)c3n2)cc1 ?
Result: False

Request: # outcome recorded in this test, key = CNC(=O)c1cc(Oc2ccc(NC(=O)Nc3cc(C(C)(C)C)nn3-c3ccc4ncccc4c3)c(F)c2)ccn1
Result: True

Request: What did the test return for CS(=O)(=O)c1cccc(CNc2nc(Nc3ccc4c(c3)CCC(=O)N4)ncc2C(F)(F)F)c1 ?
Result: False

Request: What is the recorded call for this compound in the test? COc1ccc(C2=NC(c3ccc(Cl)cc3)C(c3ccc(Cl)cc3)N2C(=O)N2CCNC(=O)C2)c(OC(C)C)c1 (centres undefined)
Result: True

Request: Hi, do you know how COCCn1c2c([n+](Cc3cnccn3)c1C)C(=O)c1ccccc1C2=O came out in this test?
Result: True
